Entries below carry reported pIC50 on GST-MERTK 578-872 (Homo sapiens (Human), UniProt Q12866).
Sequence (Q12866 578-872): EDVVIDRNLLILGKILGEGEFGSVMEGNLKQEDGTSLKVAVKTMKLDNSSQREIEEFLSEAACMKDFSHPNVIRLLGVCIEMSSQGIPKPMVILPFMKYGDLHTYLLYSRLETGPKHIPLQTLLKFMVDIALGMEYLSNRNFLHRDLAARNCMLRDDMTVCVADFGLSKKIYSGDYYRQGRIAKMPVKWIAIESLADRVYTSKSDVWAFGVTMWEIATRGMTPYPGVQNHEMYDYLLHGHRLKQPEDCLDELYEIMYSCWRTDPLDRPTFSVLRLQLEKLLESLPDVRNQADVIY
pIC50: −log10 of the molar value.
QUANTITY: pIC50

MOLECULE	READOUT NUMBER
CC(C)n1cc(C(=O)Nc2ccc(Oc3ccnc(Nc4ccc(C(=O)N(C)C)cn4)c3)c(F)c2)c(=O)n(-c2ccc(F)cc2)c1=O [Example 17]	8.72
Cc1cc(Nc2cc(Oc3ccc(NC(=O)c4cn(C(C)C)c(=O)n(-c5ccc(F)cc5)c4=O)cc3F)ccn2)nc(N2CCN(S(C)(=O)=O)CC2)c1 [Example 136]	8.41
CC(C)n1cc(C(=O)Nc2ccc(Oc3ccnc(Nc4ccc(S(=O)(=O)N(C)C)cn4)c3)cc2)c(=O)n(-c2ccccc2)c1=O [Example 75]	7.38
CC(C)n1cc(C(=O)Nc2ccc(Oc3ccnc(Nc4ccc(-c5nccs5)cn4)c3)c(F)c2)c(=O)n(-c2ccc(F)cc2)c1=O [Example 23]	7.26
CC(C)n1cc(C(=O)Nc2ccc(Oc3ccnc(Nc4ccc(S(=O)(=O)NC(C)(C)C)cn4)c3)c(F)c2)c(=O)n(-c2ccc(F)cc2)c1=O [Example 80]	7.72
CC(C)n1cc(C(=O)Nc2ccc(Oc3ccnc(Nc4ccc(S(=O)(=O)N(C)C)cn4)c3)c(F)c2)c(=O)n(-c2ccc(Cl)cc2)c1=O [Example 66]	7.54
